Where these numbers come from: patent US9187460B2

biological target: ER-α (Homo sapiens, UniProt P03372); construct: endogenous in cells; host or cells: MCF-7; assay: Breast Cancer Cell ER-α in Cell Western Assay (SP1); format: cell-based; conditions: MCF7, read-out: ER In-Cell Western Assay (SP1); Max Response
Sequence (P03372 whole entry): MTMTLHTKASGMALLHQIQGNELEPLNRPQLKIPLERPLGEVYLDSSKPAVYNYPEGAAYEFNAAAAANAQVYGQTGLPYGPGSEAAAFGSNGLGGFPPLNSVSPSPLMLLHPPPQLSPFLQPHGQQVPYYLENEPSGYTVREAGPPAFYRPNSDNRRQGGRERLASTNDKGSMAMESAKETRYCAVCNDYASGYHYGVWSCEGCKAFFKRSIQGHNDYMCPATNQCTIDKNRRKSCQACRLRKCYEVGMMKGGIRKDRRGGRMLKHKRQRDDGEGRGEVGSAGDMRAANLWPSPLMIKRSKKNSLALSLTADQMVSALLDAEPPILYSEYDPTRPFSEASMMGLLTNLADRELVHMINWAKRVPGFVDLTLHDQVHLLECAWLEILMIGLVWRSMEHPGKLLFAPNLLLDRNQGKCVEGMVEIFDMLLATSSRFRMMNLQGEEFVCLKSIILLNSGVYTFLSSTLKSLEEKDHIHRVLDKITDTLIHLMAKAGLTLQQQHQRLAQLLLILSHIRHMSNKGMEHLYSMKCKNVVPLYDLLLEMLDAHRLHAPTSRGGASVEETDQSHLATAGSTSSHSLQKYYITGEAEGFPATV
REPORTED_PROPERTY: Emax

{"COMPOUND": "CC1=C(c2cccc(C#N)c2)C(c2ccc(OC[C@H](C)N3CC[C@@H](C)C3)cc2)Oc2ccc(O)cc21 (stereo partly shown) [Example 6]", "READING": "60 to 85%"}
{"COMPOUND": "COc1cccc(C2=C(C)c3cc(O)ccc3OC2c2ccc(OC[C@H](C)N3CC[C@@H](C)C3)cc2)c1 (stereo partly shown) [Example 31]", "READING": "60 to 85%"}
{"COMPOUND": "CC1=C(c2ccc(O)c(C#N)c2)C(c2ccc(OC[C@H](C)N3CC[C@@H](C)C3)cc2)Oc2ccc(O)cc21 (stereo partly shown) [Example 11]", "READING": "> 85%"}
{"COMPOUND": "CC1=C(c2ccc(O)cc2C#N)C(c2ccc(OC[C@H](C)N3CC[C@@H](C)C3)cc2)Oc2ccc(O)cc21 (stereo partly shown) [Example 12]", "READING": "60 to 85%"}
{"COMPOUND": "COc1ccc2c(c1)C(C)=C(c1ccc(O)cc1)C(c1ccc(OC[C@H](C)N3CC[C@@H](C)C3)cc1)O2 (stereo partly shown) [Example 30]", "READING": "60 to 85%"}
{"COMPOUND": "CC1=C(c2cccc(O)c2C#N)C(c2ccc(OC[C@H](C)N3CC[C@@H](C)C3)cc2)Oc2ccc(O)cc21 (stereo partly shown) [Example 9]", "READING": "60 to 85%"}
{"COMPOUND": "CO[C@@H]1CCN([C@@H](C)COc2ccc(C3Oc4ccc(O)cc4C(C)=C3c3cccc(O)c3)cc2)C1 (stereo partly shown) [Example 25]", "READING": "60 to 85%"}
{"COMPOUND": "CC1=C(c2ccccc2Br)C(c2ccc(OC[C@H](C)N3CC[C@@H](C)C3)cc2)Oc2ccc(O)cc21 (stereo partly shown) [Example 3]", "READING": "60 to 85%"}
{"COMPOUND": "CC1=C(c2cccc(S(C)(=O)=O)c2)C(c2ccc(OC[C@H](C)N3CC[C@@H](C)C3)cc2)Oc2ccc(O)cc21 (stereo partly shown) [Example 15]", "READING": "60 to 85%"}
{"COMPOUND": "CC1=C(c2cc(O)cc(Br)c2)C(c2ccc(OC[C@H](C)N3CC[C@@H](C)C3)cc2)Oc2ccc(O)cc21 (stereo partly shown) [Example 1]", "READING": "> 85%"}
{"COMPOUND": "CC1=C(c2cc(O)ccc2Br)C(c2ccc(OC[C@H](C)N3CC[C@@H](C)C3)cc2)Oc2ccc(O)cc21 (stereo partly shown) [Example 2]", "READING": "> 85%"}
{"COMPOUND": "CC1=C(c2cc(O)ccc2C#N)C(c2ccc(OC[C@H](C)N3CC[C@@H](C)C3)cc2)Oc2ccc(O)cc21 (stereo partly shown) [Example 8]", "READING": "> 85%"}
{"COMPOUND": "CC1=C(c2ccc(Br)cc2C)C(c2ccc(OC[C@H](C)N3CC[C@@H](C)C3)cc2)Oc2ccc(O)cc21 (stereo partly shown) [Example 4]", "READING": "60 to 85%"}
{"COMPOUND": "CC1=C(c2ccc(S(C)(=O)=O)cc2C)C(c2ccc(OC[C@H](C)N3CC[C@@H](C)C3)cc2)Oc2ccc(O)cc21 (stereo partly shown) [Example 18]", "READING": "60 to 85%"}
{"COMPOUND": "CC1=C(c2cccc(O)c2)C(c2ccc(OCCN3CCO[C@H](C)C3)cc2)Oc2ccc(O)cc21 (stereo partly shown) [Example 22]", "READING": "< 60%"}
{"COMPOUND": "CC1=C(c2ccc(C#N)c(O)c2)C(c2ccc(OC[C@H](C)N3CC[C@@H](C)C3)cc2)Oc2ccc(O)cc21 (stereo partly shown) [Example 10]", "READING": "> 85%"}
